Molecular target: human GCGR (full-length glucagon receptor of 477 amino acids) (human, UniProt P47871 26-477)
Sequence (P47871 26-477 limits assumed): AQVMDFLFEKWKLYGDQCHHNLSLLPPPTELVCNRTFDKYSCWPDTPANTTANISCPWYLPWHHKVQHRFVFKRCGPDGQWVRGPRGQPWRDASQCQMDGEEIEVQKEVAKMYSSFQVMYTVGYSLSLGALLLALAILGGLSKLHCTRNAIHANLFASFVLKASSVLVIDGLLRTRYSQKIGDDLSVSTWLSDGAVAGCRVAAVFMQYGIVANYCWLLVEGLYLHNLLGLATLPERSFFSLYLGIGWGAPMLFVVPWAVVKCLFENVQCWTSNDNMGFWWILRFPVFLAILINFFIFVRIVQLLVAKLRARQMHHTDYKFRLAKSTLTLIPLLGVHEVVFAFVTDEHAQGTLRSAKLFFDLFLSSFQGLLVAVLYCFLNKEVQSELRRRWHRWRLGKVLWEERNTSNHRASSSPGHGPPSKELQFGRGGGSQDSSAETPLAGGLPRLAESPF
Experiment: cell-based or functional assay
Below, each entry is listed with its recorded IC50.

Worked examples follow.
- Binder: "hu1810-8 (antibody, human IgG4 S228P, kappa, F234A L235A, V domains shown) VH: QVQLVQSGAEVKKPGSSVKVSCKASGGTFSNYAISWVKQAPGQGLEWIGEIYPTSGNTYYNEKFKGKATLTADRSTSTMYMELSSLRSEDTAVYYCASGVITTVVSTDYFDYWGQGTLVTVSS VL: DIQMTQSPSSLSASVGDRVTITCRASLDISNYLNWYQQKPGKAVKLLIYYTSTLHSGVSSRFSGSGSGTDYTLTISSLQPEDFATYYCQQGNMVPYTFGGGTKVEIKR"
  IC50: "133 nM"
- Binder: "hu1810-3 (antibody, human IgG4 S228P, kappa, F234A L235A, V domains shown) VH: QVQLVQSGAEVKKPGSSVKVSCKASGGTFSNYAISWVRQAPGQGLEWIGEIYPTSGNTYYNEKFKGRATLTADRSTSTMYMELSSLRSEDTAVYYCASGVITTVVSTDYFDYWGQGTLVTVSS VL: DIQMTQSPSSLSASVGDRVTITCRASLDISNYLNWYQQKPGKAPKLLIYYTSTLHSGVPSRFSGSGSGTDFTLTISSLQPEDFATYYCQQGNMVPYTFGGGTKVEIKR"
  IC50: "192 nM"

Next up:
Fill in the blank: the reported IC50 of hu1803-9 (antibody, human IgG4 S228P, kappa, F234A L235A, V domains shown, IgG4-AA / kappa humanized antibody; also called hu1803_VH.1 + hu1803_VL.1B; GCGR monoclonal antibody) VH: EVQLVQSGAEVKKPGASVKVSCKASGYTFTDYWIEWVRQAPGQGLEWMGEILPGSTYTNYNEKFKGRVTMTRDTSTSTVYMELSSLRSEDTAVYYCARGLSTLMAVDYFDYWGQGTTVTVSS VL: DIQMTQSPSSLSASVGDRVTITCRASQDISNYLNWYQQKPGKAVKLLIYYSSTLHSGVPSRFSGSGSGTDYTLTISSLQPEDFATYYCQQTNIFPWTFGGGTKVEIKR is ____.
78.4 nM
